# Tested on: Alternaria bracissicola
# experiment summary: Test for Alternaria bracissicola-controlling effect (chinese cabbage)
# Format: in vivo
# condition set: 200 ppm active ingredient, 7 ml per pot
A collection of molecules and their measured Degree of damage
Expressed in %, but write only the number.

In the examples that follow, each entry is paired with its recorded Degree of damage.
CCCS(=O)(=O)N1C(=O)N(c2cc(Cl)cc(Cl)c2)C(=O)C1(C)C [Compound 69] = 6
O=C1CN(S(=O)(=O)CCCCl)C(=O)N1c1cc(Cl)cc(Cl)c1 [Compound 70] = 1
CCS(=O)(=O)N1CC(=O)N(c2cc(Cl)cc(Cl)c2)C1=O [Compound 54] = 2
CS(=O)(=O)N1CC(=O)N(c2cc(Cl)cc(Cl)c2)C1=O [Compound 53] = 11
CCCS(=O)(=O)N1CC(=O)N(c2cc(Cl)cc(Cl)c2)C1=O [Compound 55] = 0

What Degree of damage value was documented for this molecule, CCCCS(=O)(=O)N1CC(=O)N(c2cc(Cl)cc(Cl)c2)C1=O [Compound 57] ?
0

All figures here come from patent US4056622A.
